Experiment: PK in rats, oral administration
Assay type: in vivo
Conditions: male, Sprague-Dawley, 1.3 mg/kg, rat plasma
measurement type: Cmax (ng/mL)
Give bare numbers, in ng/mL.

### Prompt Cmax for COC(C)(C)c1cc(S(=O)(=O)NC(=O)Nc2c(C(C)C)cc(Cl)cc2C(C)C)nn1C ?
### Response 468

* * *

Target: NLRP3 (Homo sapiens)
Sequence (Q96P20 whole entry): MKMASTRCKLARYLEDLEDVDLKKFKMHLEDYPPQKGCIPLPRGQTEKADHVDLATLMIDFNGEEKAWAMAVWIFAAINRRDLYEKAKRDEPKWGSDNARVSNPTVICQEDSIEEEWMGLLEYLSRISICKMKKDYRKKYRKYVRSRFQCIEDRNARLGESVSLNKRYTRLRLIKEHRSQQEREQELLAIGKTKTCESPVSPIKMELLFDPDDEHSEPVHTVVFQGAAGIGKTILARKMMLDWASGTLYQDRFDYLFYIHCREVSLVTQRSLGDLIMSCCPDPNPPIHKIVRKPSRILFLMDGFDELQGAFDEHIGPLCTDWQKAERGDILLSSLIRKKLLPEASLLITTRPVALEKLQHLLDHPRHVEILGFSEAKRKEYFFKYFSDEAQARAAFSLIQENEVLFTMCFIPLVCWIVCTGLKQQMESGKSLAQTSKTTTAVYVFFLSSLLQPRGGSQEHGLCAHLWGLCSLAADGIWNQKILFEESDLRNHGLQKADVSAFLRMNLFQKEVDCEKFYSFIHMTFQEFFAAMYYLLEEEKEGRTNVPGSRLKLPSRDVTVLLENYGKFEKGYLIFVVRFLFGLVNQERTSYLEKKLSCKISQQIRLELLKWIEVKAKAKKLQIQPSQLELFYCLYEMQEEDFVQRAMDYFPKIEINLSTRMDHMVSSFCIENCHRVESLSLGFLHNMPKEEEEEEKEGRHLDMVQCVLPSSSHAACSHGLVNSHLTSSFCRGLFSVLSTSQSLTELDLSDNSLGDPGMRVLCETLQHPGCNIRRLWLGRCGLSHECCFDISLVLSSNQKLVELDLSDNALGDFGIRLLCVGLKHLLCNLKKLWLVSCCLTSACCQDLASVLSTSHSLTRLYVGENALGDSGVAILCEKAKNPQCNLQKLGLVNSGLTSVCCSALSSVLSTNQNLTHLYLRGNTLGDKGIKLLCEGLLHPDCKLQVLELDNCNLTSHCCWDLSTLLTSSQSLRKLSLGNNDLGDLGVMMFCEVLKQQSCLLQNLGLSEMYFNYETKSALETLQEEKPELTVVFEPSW
Assay: THP-1 cells pyroptosis assay (LPS + nigericin, resazurin read-out)
Type: cell-based
Set-up: Seed THP-1 cells (25,000 cells/well) containing 1.0 μg/ml LPS; host or cells: THP-1 cells
Conditions: NLRP3 inhibitory activity, 1 μg/ml LPS, 5 μM nigericin
Method: The cells were routinely passaged and grown to confluency (˜10^6 cells/ml). On the day of the experiment, THP-1 cells were harvested and resuspended into RPMI medium (without FBS). The cells were then counted and viability (>90%) checked by Trypan blue (Sigma #T8154). […] To this diluted cell solution was added LPS (Sigma #L4524) to give a 1 μg/ml Final Assay Concentration (FAC). 40 μl of the final preparation was aliquoted into each well of a 96-well plate. […]
pIC50: −log10 of the molar value. Structures can show the parent of a compound that is named as a salt.
measurement type: pIC50

compound: CC(C)c1cccc(C(C)C)c1NC(=O)NS(=O)(=O)c1ccn(C(C)C)n1 [Example 68, sodium salt]
pIC50: 5.30 to 6.00
//
compound: CC(C)c1cc(F)cc2c1C(C(=O)NS(=O)(=O)c1cc(C(=O)N(C)C)n(C)n1)CC2(C)C (stereo not shown)
pIC50: 5.00 to 5.30
//
compound: CC(C)n1cc(S(=O)(=O)NC(=O)Nc2c3c(c(Br)c4c2CCC4)CCC3)cn1
pIC50: > 6.60

Provide the reported pIC50 of each entry below, same order.
1. O=C(Nc1c2c(cc3c1CCC3)CCC2)NS(=O)(=O)c1cnn(CC(F)(F)F)c1 [Example 41, sodium salt]
2. O=C(Nc1c2c(cc3c1CCC3)CCC2)NS(=O)(=O)c1ccn(CC(F)F)n1 [Example 63, sodium salt]
3. CC(C)(O)c1coc(S(=O)(=O)NC(=O)Cn2ncc3ccccc32)c1
4. NC/C(=C\F)COc1ccc(S(=O)(=O)NC(=O)Nc2c3c(cc4c2CCC4)CCC3)cc1 [Example 17, 2,2,2-trifluoroacetate salt]

### Response
1. 6.30 to 6.60
2. > 6.60
3. 5.30 to 6.00
4. 6.30 to 6.60

* * *

Biological target: NLRP3 (Homo sapiens)
Assay: Human whole blood IL-1β release assay (LPS + nigericin, AlphaLisa)
Format: cell-based
Parameters: Human whole blood in Li-heparin tubes was obtained from healthy donors; from tissue; host or cells: human whole blood from healthy donors
Conditions: NLRP3 inhibitory activity, 1 μg/ml LPS, 10 μM nigericin, read-out: HWB IC50
pIC50: −log10 of the molar value. Counter-ions that a name gives are not always drawn.
Task for the reader: assign each of the following compounds its reported pIC50.

Here is how some compounds turned out for pIC50.
compound: [2H]C([2H])([2H])N(CCn1ccc(S(=O)(=O)NC(=O)Nc2c3c(cc4c2CCC4)CCC3)n1)C([2H])([2H])[2H] [Example 12, potassium salt]
data value: 6.00 to 6.30
//
compound: CC(C)n1ccc(S(=O)(=O)NC(=O)Nc2c3c(cc4c2CCC4=O)CCC3)n1 [Example 31, sodium salt]
data value: 5.00 to 5.30
//
compound: CC(C)n1ccc(S(=O)(=O)NC(=O)Nc2c3c(cc4c2CCC4O)CCC3)n1 (centres unmarked)
data value: 5.00 to 5.30
//
compound: CN(C)Cc1ccc(S(=O)(=O)NC(=O)Nc2c3c(cc4c2CCC4)CCC3)cc1 [Example 66, sodium salt]
data value: 6.30 to 6.60
//
compound: CC(C)n1ncc(S(=O)(=O)NC(=O)Nc2c3c(cc4c2CCC4)CCC3)n1
data value: 5.30 to 6.00

Each of the following entries comes with a recorded value; kindly state pIC50 for each.
1. COC1(c2cc(S(=O)(=O)NC(=O)Nc3c4c(cc5c3CCC5)CCC4)nn2C)CCC1
2. COC(C)(C)c1cc(S(=O)(=O)NC(=O)Nc2c(C(C)C)cccc2C(C)C)nn1C
3. NC/C(=C\F)COc1ccc(S(=O)(=O)NC(=O)Nc2c3c(cc4c2CCC4)CCC3)cc1 [Example 17, 2,2,2-trifluoroacetate salt]

### Response
["6.30 to 6.60", "6.30 to 6.60", "5.30 to 6.00"]
